# System: HEK-293T
# protocol: Incucyte cell viability with HEK293T; further: unitless GR value; below 1 slowed growth and below 0 cell loss
# Assay type: toxicity, cell-based
# stated conditions: human, 18 h, 10 µM, compound concentration 10 uM, replicate number 1
Answer each item with its documented Growth Rate.
I'd appreciate a reply containing only the number, no unit.

Challenge: Provide value of Growth Rate for this record tested with HEK-293T: COC[C@@H](CC(C)C)NC1=N/C(=C\c2ccc3ncsc3c2)C(=O)N1C
Response given: 0.35

Challenge: Input COc1cc2ncnc(Nc3cccc(O)c3)c2cc1OC
Response given: 0.96

Challenge: Note, next up: Cc1cccc(F)c1C(=O)Nc1cnc(-c2cc3c(cc2Cl)OC(F)(F)O3)cn1 [ZEGOCRACTIN]
Response given: 0.24

Challenge: Same question for Cc1cc(C2CCCNC2)ccc1Nc1ncc(Br)c(NCc2cccc3c2C(C)(C)C(=O)N3)n1 (stereo not drawn) please.
Response given: 0.07

Challenge: Continue with C=CC(=O)Nc1cccc(C(=O)Nc2ccc(NC(=O)c3cccc(-c4ccn[nH]4)n3)cc2)c1
Response given: 0.81

Challenge: One more compound: CCOC(=O)c1cc2cc(-c3cc(C(=O)NCc4ccc(C(=O)O)cc4)nn3C)ccc2[nH]1 [BI 4394]
Response given: 0.93

Challenge: Please do the same for CCCCC/C=C/C=C1/C(=O)C=C[C@@H]1C/C=C\CCCC(=O)O as well.
Response given: 0.89

Challenge: Cool, now CN(C)CCCN1c2ccccc2Sc2ccc(Cl)cc21.Cl [CHLORPROMAZINE HYDROCHLORIDE]
Response given: 0.18

Challenge: // same read-out, input: Nc1ncnc2[nH]c(-c3ccccc3)nc12
Response given: 0.8

Challenge: Then COc1cccc(-c2c(C)c(Cc3c(F)cccc3C(F)(F)F)c3n(c2=O)[C@@H]([C@@H](N)c2ccccc2)CS3)c1F ?
Response given: 0.72

Challenge: Now this one: CCN1CCN(Cc2ccc(NC(=O)c3ccc(C)c(Oc4ccnc5[nH]ccc45)c3)cc2C(F)(F)F)CC1.Cl.Cl.Cl.O
Response given: -0.7

Challenge: Then this compound: CCOC(=O)c1ncn2c1[C@@H]1CCCN1C(=O)c1cc(OC)ccc1-2
Response given: 0.83

Challenge: Also check CN(C)C(=O)Cn1cc(-c2nc(C3(c4ccc(-c5cnc(N)nc5)cc4)CC3)no2)cn1 [BI 0153]
Response given: 0.95
